Assay explanation: binders from COS7 lysate, DM2A8 probe, primary screen, torsin A project, cell lysate, small-molecule microarray, fluorescence 635/667 (AID 1065)
Condition context: higher = more signal, COS7 lysate expressing mutant human TOR1A
In this section we review reported composite z-score values for a set of compounds.

| Compound | composite z-score |
| --- | --- |
| COCCOC(=O)N1C(=O)[C@@]2(c3cc(C#CCCO)ccc31)[C@H](c1ccc(OCCO)cc1)N1[C@H](c3ccccc3)[C@H](c3ccccc3)OC(=O)[C@H]1[C@@H]2C(=O)NC[C@H](O)c1ccccc1 | 1.04 |
| O=C(NCc1ccccc1)[C@@]1(Cc2ccccc2)COC(c2ccc(OCCCO)cc2)=N1 | 0.0094 |
| C=CC[C@]1(C(=O)NCC(O)CO)N=C(c2ccc(OCCCO)cc2)O[C@H]1c1ccccc1 (some centres not stated) | -0.012 |
| CCOC(=O)C1=CC[C@@H](c2ccccc2)N(S(=O)(=O)c2ccc(C)cc2)[C@H]1C | 1.09 |
| CCCN1C(=O)[C@@]2(CCS(=O)(=O)c3ccccc3)N=C(c3ccc(OCCCO)cc3)O[C@H]2c2ccccc21 | 0.437 |
| C[C@H]1NC(=O)[C@@H](C)NC(=O)[C@@]23C(=O)N[C@@H](Cc4ccccc4)C2[C@H](C)[C@@]2(C)O[C@H]2C3/C=C/C/C=C\CNC1=O (some centres not stated) | -0.0794 |
| CCN1C(C)=C(C(=O)OC)[C@@H](c2ccccc2)N2C(=O)[C@](O)(C(=O)OC)[C@@H](c3ccccc3)C(C(=O)c3ccccc3)=C12 | 0.36 |

====

System tested: Neurogenic locus notch homolog protein 3 (Homo sapiens) (UniProt Q9UM47)
Sequence (Q9UM47 whole entry, looked up): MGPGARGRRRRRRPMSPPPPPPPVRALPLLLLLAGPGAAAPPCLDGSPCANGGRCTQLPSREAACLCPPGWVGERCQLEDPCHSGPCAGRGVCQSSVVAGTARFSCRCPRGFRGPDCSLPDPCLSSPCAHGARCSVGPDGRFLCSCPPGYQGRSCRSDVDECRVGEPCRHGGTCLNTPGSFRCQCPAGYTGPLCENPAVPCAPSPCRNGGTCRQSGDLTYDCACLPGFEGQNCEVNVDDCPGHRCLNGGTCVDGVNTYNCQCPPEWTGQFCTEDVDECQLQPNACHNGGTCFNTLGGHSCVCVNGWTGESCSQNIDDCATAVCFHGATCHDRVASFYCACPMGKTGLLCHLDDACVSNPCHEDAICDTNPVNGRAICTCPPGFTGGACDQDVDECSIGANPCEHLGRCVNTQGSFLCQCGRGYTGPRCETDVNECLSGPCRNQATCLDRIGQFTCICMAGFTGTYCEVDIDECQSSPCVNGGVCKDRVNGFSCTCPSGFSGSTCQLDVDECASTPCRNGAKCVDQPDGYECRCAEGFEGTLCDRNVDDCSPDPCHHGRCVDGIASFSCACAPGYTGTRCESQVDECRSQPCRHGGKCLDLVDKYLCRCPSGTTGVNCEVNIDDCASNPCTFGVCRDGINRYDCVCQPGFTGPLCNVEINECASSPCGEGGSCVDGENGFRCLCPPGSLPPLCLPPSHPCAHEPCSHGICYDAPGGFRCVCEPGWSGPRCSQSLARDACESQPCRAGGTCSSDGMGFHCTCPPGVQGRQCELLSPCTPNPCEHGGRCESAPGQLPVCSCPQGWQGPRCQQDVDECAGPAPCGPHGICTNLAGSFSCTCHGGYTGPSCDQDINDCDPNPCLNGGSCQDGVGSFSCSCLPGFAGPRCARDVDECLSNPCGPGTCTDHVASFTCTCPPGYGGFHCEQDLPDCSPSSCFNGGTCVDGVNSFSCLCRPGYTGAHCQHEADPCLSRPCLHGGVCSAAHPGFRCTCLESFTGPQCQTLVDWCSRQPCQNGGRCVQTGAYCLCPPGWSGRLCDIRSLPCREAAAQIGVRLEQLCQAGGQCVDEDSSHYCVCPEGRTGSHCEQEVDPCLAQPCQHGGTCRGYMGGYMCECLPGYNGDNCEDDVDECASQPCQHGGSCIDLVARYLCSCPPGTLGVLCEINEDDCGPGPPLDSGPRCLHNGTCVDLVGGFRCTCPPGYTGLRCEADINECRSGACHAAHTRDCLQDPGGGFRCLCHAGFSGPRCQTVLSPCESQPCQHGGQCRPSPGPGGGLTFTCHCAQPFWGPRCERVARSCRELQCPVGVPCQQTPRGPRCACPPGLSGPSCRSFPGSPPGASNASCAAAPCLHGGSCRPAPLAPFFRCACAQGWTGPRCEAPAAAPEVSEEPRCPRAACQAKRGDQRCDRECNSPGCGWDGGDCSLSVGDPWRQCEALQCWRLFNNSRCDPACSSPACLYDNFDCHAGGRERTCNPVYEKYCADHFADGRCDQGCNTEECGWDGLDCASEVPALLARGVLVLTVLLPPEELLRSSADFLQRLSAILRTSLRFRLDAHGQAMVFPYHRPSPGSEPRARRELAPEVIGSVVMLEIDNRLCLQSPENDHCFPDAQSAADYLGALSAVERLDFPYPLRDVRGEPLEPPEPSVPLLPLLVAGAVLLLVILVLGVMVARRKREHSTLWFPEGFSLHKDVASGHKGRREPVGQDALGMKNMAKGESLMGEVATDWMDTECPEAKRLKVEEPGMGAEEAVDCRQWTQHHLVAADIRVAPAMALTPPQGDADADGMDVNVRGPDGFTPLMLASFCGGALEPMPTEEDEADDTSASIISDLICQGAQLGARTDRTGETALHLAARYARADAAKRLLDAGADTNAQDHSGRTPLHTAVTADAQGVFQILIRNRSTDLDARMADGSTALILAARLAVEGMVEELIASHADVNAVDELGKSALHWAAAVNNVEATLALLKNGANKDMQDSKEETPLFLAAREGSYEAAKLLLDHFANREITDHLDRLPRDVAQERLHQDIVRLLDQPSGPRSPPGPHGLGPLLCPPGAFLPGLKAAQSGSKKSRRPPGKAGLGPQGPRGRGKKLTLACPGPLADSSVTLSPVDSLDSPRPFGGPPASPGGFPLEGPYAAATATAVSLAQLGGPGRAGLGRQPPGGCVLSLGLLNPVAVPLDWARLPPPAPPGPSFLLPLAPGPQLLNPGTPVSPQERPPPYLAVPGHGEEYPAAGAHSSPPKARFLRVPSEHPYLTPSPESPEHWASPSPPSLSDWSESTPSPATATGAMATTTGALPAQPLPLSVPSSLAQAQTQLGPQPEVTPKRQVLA
Assay explanation: NOTCH3 binders on small-molecule microarray, primary screen, biochemical, 635/667 nm fluorescence (AID 1096)
Condition context: NOTCH3 binding, 635 nm fluorescence, higher = more signal
Lab note: anything with composite z-score at or over 0.1 counts as MET; the rest go in NOT MET.

| Molecule | Discrete label |
| --- | --- |
| COc1cc2c(cc1OC)CN(C(=O)[C@H]1[C@@H]3C(=O)O[C@@H](c4ccccc4)[C@@H](c4ccccc4)N3[C@@H](c3ccc(O)cc3)[C@]13C(=O)Nc1ccc(C#CC4(O)CCCCCC4)cc13)CC2 | MET |
| N#Cc1ccc(NN2C(C(O)c3ccc(I)cc3)C=CC3C(=O)N(c4ccccc4)C(=O)C32)cc1 (stereo unspecified) | MET |
| O=C1c2ccccc2[C@@]2(Cc3ccccc3N(CC(F)(F)F)C2=O)[C@H](c2ccc(CO)cc2)N1C1CCCCC1 | MET |
| O=C1c2ccccc2[C@](Cc2ccccc2I)(C(=O)NCc2ccccc2)[C@H](c2ccc(CO)cc2)N1Cc1ccccc1C(F)(F)F | NOT MET |
| CC(C)NC(=O)[C@@]1(Cc2ccccc2I)c2ccccc2C(=O)N(C2CCCCC2)[C@H]1c1ccc(CO)cc1 | MET |
| C=C(/C(=C/C[C@@H](OC(=O)c1ccncc1)c1ccc(CO)o1)c1cnc2ccccc2c1)C(C)C | MET |
| CCCC=C(CCC)[C@@H](NC(=O)c1ccc(C(F)(F)F)cc1)c1ccccc1 | MET |
| CC(C)[C@H]1NC(=O)[C@@]23C(=O)N[C@@H](Cc4ccccc4)C2[C@H](C)[C@@]2(C)O[C@H]2C3/C=C/C/C=C\CNC(=O)[C@H](C)NC1=O (stereo partly specified) | NOT MET |
| C=C(C(=O)CC[C@H](OC(=O)c1ccccc1-c1ccccc1C(=O)O)c1ccc(CO)o1)C(C)C | MET |
| CC(C)[Si]1(C(C)C)O[C@@H](c2ccccc2)c2cc(C3CC3)nc(-c3ccc(Oc4ccccc4)cc3)c21 | NOT MET |
| C#CCCCON=C1C[C@@H](O)[C@@H](O)[C@@H]2[C@@H]3C(=O)N(Cc4ccc5c(c4)OCO5)C(=O)[C@@H]3CC[C@@H]12 | NOT MET |
| O=C1O[C@@H](c2ccccc2)[C@@H](c2ccccc2)N2[C@@H](c3ccc(O)cc3)[C@]3(C(=O)Nc4ccc(C#CC5(O)CCCCCC5)cc43)[C@@H](C(=O)Nc3nc4ccccc4s3)[C@H]12 | MET |
| COC(=O)[C@H]1[C@@H]2COc3ccccc3[C@H]2N[C@H]1C(=O)OC | MET |
| CO[C@H]1COC(=O)CC=C[C@H](C)[C@@H](OC)COC(=O)CC=C[C@@H]1C | NOT MET |
| C=CC[C@@]1(C(=O)N2CCOCC2)N=C(c2ccc(OCCCO)cc2)O[C@@H]1c1ccccc1 | NOT MET |
| C=C(COC)/C(=C/C[C@@H](OC(C)=O)c1cccc(OCCO)c1)c1cc(C(=O)OC)ccc1OC | MET |
| COc1cc(Cc2cc3c(c(CCc4ccccc4)n2)[Si](C(C)C)(C(C)C)OC3)cc(OC)c1OC | MET |
| CCCN1C(=O)[C@@]2(CCS(=O)(=O)c3ccccc3)N=C(c3ccc(OCCCO)cc3)O[C@H]2c2ccccc21 | MET |
| COc1ccc([Si](C)(C)[C@@H]2[C@@H](CC(=O)N(CCO)Cc3ccccc3)O[C@]3(C(=O)N(Cc4cccc(N5CCC5=O)c4)c4ccccc43)[C@H]2C)cc1 | MET |
| CC(=O)NCCCC[C@@H]1NC(=O)[C@@H]2C[C@H](C(=O)NCCCCCNC(=O)CS)[C@H](c3ccc(O)cc3)N2C1=O | MET |
| COc1ccc(-c2cc3c(c(-c4ccccc4)n2)[Si](C(C)C)(C(C)C)O[C@H]3c2ccccc2)cn1 | MET |
| CN(C)c1ccc(C(O)C2C=CC3C(=O)NC(=O)C3N2Nc2ccc(Cl)cc2Cl)cc1 (stereo unspecified) | MET |
| C=CC[C@]1(C(=O)O)N=C(c2ccc(OCCCO)cc2)O[C@H]1c1ccccc1 | NOT MET |
| COc1ccc(CCNC(=O)[C@@]2(c3ccc([N+](=O)[O-])cc3)CC(=O)N(C(C)C)[C@@H]2c2ccc(CO)cc2)cc1 | NOT MET |
| O=C1C2C=CC(C(O)c3ccccc3)N(n3cnnc3)C2C(=O)N1Cc1ccccc1 (stereo unspecified) | NOT MET |
| C=C(CCCC)C(=O)CC[C@@H](OC(=O)c1cccnc1)c1cccc(OCCO)c1 | MET |
| CCC(=O)[C@]12O[C@@]3([C@@H]4C(=O)OCC[C@@H]41)N(CC)C(C)=C(C(=O)OC)[C@@H](c1ccccc1)N3C2=O | NOT MET |
| O=C1C2C=CC(C(O)Cc3ccccc3)N(Nc3ccc([N+](=O)[O-])cc3)C2C(=O)N1c1ccccc1 (stereo unspecified) | MET |
| C=CC[C@]1(C(=O)N2CCCCC2)N=C(c2ccc(OCCCO)cc2)O[C@H]1c1ccccc1N=[N+]=[N-] | MET |
| COc1cccc([C@@H]2[C@@H](C)CC[C@H]3C(=O)N4[C@H](c5cccc(OC)c5)[C@@H](C)CC[C@H]4C(=O)N23)c1 | MET |
| CCN1C(C)=C(C(=O)OC)[C@@H](c2ccccc2)N2C(=O)[C@](O)(C(=O)OC)[C@@H](c3ccccc3)C(C(C)=O)=C12 | MET |

====

System: Human papillomavirus type 1a E7 protein (residues 1-88)
Assay explanation: HPV1a E7 small-molecule binders, primary screen, biochemical, small-molecule microarray, residues 1-88, 635 nm (AID 1129)
Condition context: small-molecule microarray binding, fluorescence 635 nm; higher = more signal
Measure: composite z-score

| Compound | System tested | Measure | Val |
| --- | --- | --- | --- |
| COC(=O)[C@H]1[C@@H]2COc3ccccc3[C@H]2N[C@H]1C(=O)OC | Human papillomavirus type 1a E7 protein (residues 1-88) | composite z-score | 0.0902 |
| Cc1ccc(S(=O)(=O)N[C@H]2COC(=O)CC=C[C@H](C)COC(=O)N[C@@H](C)C(=O)CC=C[C@@H]2C)cc1 | Human papillomavirus type 1a E7 protein (residues 1-88) | composite z-score | -0.368 |
| C[C@@H]1CC[C@H]2C(=O)N3[C@@H](CC[C@@H](C)[C@@H]3c3cccc(N4CCOCC4)c3)C(=O)N2[C@H]1c1cccc(Br)c1 | Human papillomavirus type 1a E7 protein (residues 1-88) | composite z-score | 1.04 |
| O=C1O[C@H](c2ccccc2)[C@H](c2ccccc2)N2[C@H]1[C@@H](C(=O)NC[C@H](O)c1ccccc1)[C@]1(C(=O)Nc3ccc(C#CC4=CCCCC4)cc31)[C@H]2c1ccc(OCCO)cc1 | Human papillomavirus type 1a E7 protein (residues 1-88) | composite z-score | 1.19 |
| C=CCN1C(=O)[C@@]2(Cc3ccccc3)N=C(c3ccc(OCCCO)cc3)O[C@H]2c2ccccc21 | Human papillomavirus type 1a E7 protein (residues 1-88) | composite z-score | 1.23 |
| O=C1O[C@@H](c2ccccc2)[C@@H](c2ccccc2)N2[C@@H](c3ccc(O)cc3)[C@]3(C(=O)Nc4ccccc43)[C@@H](C(=O)N3CCN(c4ncccn4)CC3)[C@H]12 | Human papillomavirus type 1a E7 protein (residues 1-88) | composite z-score | 1.19 |
| CCCCO[C@H]1C[C@H]2C(Br)=C[C@@]1(CO)C(=O)[C@]21CO1 | Human papillomavirus type 1a E7 protein (residues 1-88) | composite z-score | -0.153 |
| CN(C)c1ccc(C(O)C2C=CC3C(=O)NC(=O)C3N2Nc2ccc(Cl)cc2Cl)cc1 (stereo not given) | Human papillomavirus type 1a E7 protein (residues 1-88) | composite z-score | 1.14 |
| COc1cc(CO)cc(I)c1O[C@H]1C=C(C(=O)NCCO)C[C@@H](N(CC2CCCCC2)C(=O)c2cc3ccccc3oc2=O)[C@@H]1O | Human papillomavirus type 1a E7 protein (residues 1-88) | composite z-score | 0.238 |
| O=C1c2ccccc2[C@](Cc2ccccc2I)(C(=O)NCc2ccccc2)[C@H](c2ccc(CO)cc2)N1Cc1ccccc1C(F)(F)F | Human papillomavirus type 1a E7 protein (residues 1-88) | composite z-score | -0.455 |
| CC1=C([C@H](O)CCc2ccccc2)[C@H](CO)[C@@H]2C(=O)N(Cc3ccccc3)C(=O)[C@@H]2C1 | Human papillomavirus type 1a E7 protein (residues 1-88) | composite z-score | 0.0269 |
| CN(C)C(=O)[C@@]1(Cc2ccccc2N=[N+]=[N-])N=C(c2ccc(OCCCO)cc2)O[C@H]1c1ccccc1CN=[N+]=[N-] | Human papillomavirus type 1a E7 protein (residues 1-88) | composite z-score | 1.23 |
| COC(=O)[C@@]1(Cc2ccccc2)[C@H]2c3cc(C(=O)N4CCCC4)n(CCN4CNCC4=O)c3C[C@H]2CN1C(=O)c1ccccc1 | Human papillomavirus type 1a E7 protein (residues 1-88) | composite z-score | 1.21 |
| C[N+](C)(C)CCCCNC(=O)[C@@H]1C[C@@H]2C(=O)N3CCC[C@H]3C(=O)N2[C@@H]1c1cccc(OCCO)c1 | Human papillomavirus type 1a E7 protein (residues 1-88) | composite z-score | 0.143 |
| O=C1NC(=O)C2C1C=CC(C(O)C=Cc1ccc([N+](=O)[O-])cc1)N2Nc1ccccn1 (stereo not given) | Human papillomavirus type 1a E7 protein (residues 1-88) | composite z-score | 0.235 |
